System: HEK-293T
METHOD_SUMMARY: Incucyte cell viability with HEK293T; further: filed as whole numbers so only -1 and 0 and 1 occur
Format: toxicity, cell-based
TEST_PARAMETERS: human, 24 h, 10 µM, compound concentration 10 uM, replicate number 1, timepoint 24 hours
READOUT_TYPE: Growth Rate
I only need the number, thanks.

Guide cases for Growth Rate, answers given:
# MOLECULE, TESTED_SYSTEM, Growth Rate
data = [
    ("Cc1noc([C@H]2C[C@@H](c3ccc(C(F)(F)F)cc3)CN(C(=O)N3CCS(=O)(=O)C3)C2)n1 [BAY-448]", "HEK-293T", 0),
    ("COc1ccc(S(=O)(=O)N2c3ccc(Cl)cc3[C@](O)(c3ccccc3Cl)[C@@H]2C(=O)N2CCC[C@H]2C(N)=O)cc1OC [RELCOVAPTAN]", "HEK-293T", 0),
    ("CC(C)(C)NC[C@H](O)COc1nsnc1N1CCOCC1 [TIMOLOL]", "HEK-293T", 0),
]

Recorded Growth Rate (molecule O=C(Nc1ccc(Oc2ccc(F)cc2)cc1)N1CCc2ncccc2[C@H]1c1ccc(F)cc1 [BAY-897] ): 0

Field Growth Rate (entry Cc1cnc(-c2cc(Cl)ccc2F)cc1-n1c(=O)n(CC(N)=O)c2ccccc21 [Al11] ) reads 1

What the record says about `Cc1csc(NC(=O)c2cc(F)cc(Oc3cncnc3)c2)n1` : Growth Rate is 1

---

Tested on: Fibroblast
METHOD_SUMMARY: Multiplex assay against human fibroblast
Assay type: toxicity, cell-based
TEST_PARAMETERS: 48 h, 10 µM, compound concentration 10 uM, replicate 1
READOUT_TYPE: Population Fragmented Nuclei (%)
Please give a number only; it is taken to be in %.

Examples from the recorded data:
# MOLECULE, TESTED_SYSTEM, EXPERIMENTAL_VALUE
measured = [
    ("Cc1ccc(C)c(Oc2ccncc2C(=O)N2CCN(C3CC3)c3ccccc32)c1", "Fibroblast", 40),
    ("Cc1cccc(CN2CCN(C(c3ccccc3)c3ccc(Cl)cc3)CC2)c1.Cl.Cl (stereo unspecified)", "Fibroblast", 39),
    ("Cc1ccc2c(c1)c1c(n2CCc2ccc(C)nc2)CCN(C)C1 [LATREPIRDINE]", "Fibroblast", 40),
    ("CC(C)NC(=O)N1CC[C@H](NC2=Nc3cc(F)ccc3N(CC(F)F)c3ccc(Cl)cc32)C1", "Fibroblast", 41),
]

Recorded Population Fragmented Nuclei (%) (molecule CCc1nn(CCCN2CCN(c3cccc(Cl)c3)CC2)c(=O)n1CCOc1ccccc1.Cl [NEFAZODONE HYDROCHLORIDE] ): 40

// sample `CN1CCN(Cc2ccc(Nc3ncc(Cl)c(Nc4ccccc4S(=O)(=O)N(C)C)n3)cc2)CC1` , its Population Fragmented Nuclei (%) was 39

---

Test system: HEK-293T
METHOD_SUMMARY: Multiplex assay against HEK293T
Assay type: toxicity, cell-based
TEST_PARAMETERS: human, 24 h, 1 µM, compound concentration 1 uM, replicate 1
# maps each entry to its Population Fragmented Nuclei (%)
Lab book: enter the figure in %, no units written.

Worked cases, Population Fragmented Nuclei (%) given:
# COMPOUND, Population Fragmented Nuclei (%)
measured = [
    ("CC1=C(C(=O)Nc2cc3cn[nH]c3cc2F)C(c2ccc(C(F)(F)F)cc2)CC(=O)N1 (stereo not given)", 11),
    ("Cc1ccc2c(c1)c1c(n2CCc2ccc(C)nc2)CCN(C)C1 [LATREPIRDINE]", 7),
    ("CCc1ccc(OCc2ccccc2C(=O)Nc2ccc3nc(C)cc(N)c3c2)cc1.Cl", 18),
]

// assay HEK-293T, entry COc1cc2ncn(-c3cc(OCc4ccccc4C(F)(F)F)c(C(N)=O)s3)c2cc1OC [GW843682X] , Population Fragmented Nuclei (%) value = 11

Item: `O=c1[nH]c2ccccc2n1C1CCN(Cc2ccc(-c3[nH]c4cc5ncnc5cc4nc3-c3ccccc3)cc2)CC1` | System: HEK-293T | Population Fragmented Nuclei (%): 14

Recorded values, source ChEMBL document CHEMBL4689842.
